Z-AUC by entry:
Assay: qHTS drug screen for cell cycle checkpoint inhibitors in PARPi-resistant BRCA-mutant ovarian cancer cell lines. (AID 1963452)
Settings: PEO1/OlaR viability, CellTiter-Glo luminescence, 96 h; stronger effect = lower value
The source made the active and inactive calls. The call rests on the fitted dose curve.

Examples with answers:
compound	Z-AUC
COc1ccc2c(c1)CC[C@@H]1[C@@H]2CC[C@]2(C)[C@@H](NCCCCCCN3C(=O)C=CC3=O)CC[C@@H]12	0.11 (inactive)
COc1cc(-c2cc(-c3ccc(N4CCNCC4)cc3)cnc2C)cc(OC)c1OC	-1.12 (inactive)
Clc1ccc(-c2nc3sccn3c2/C=N/OCc2ccc(Cl)c(Cl)c2)cc1	1.14 (inactive)
CCCC[C@@H](C=O)NC(=O)[C@H](CC(C)C)NC(=O)OCc1ccccc1	1.25 (inactive)
c1ccc(Cn2c(-c3ccc(OCC(C4CCNCC4)n4c(-c5ccccc5)nc5ccccc54)cc3)nc3ccccc32)cc1 (centres undefined)	0.308 (inactive)
C#Cc1cccc(Nc2ncnc3cc4c(cc23)OCCOCCOCCO4)c1	0.644 (inactive)
COC(=O)/C=C/C(=O)N(O)CCCCNCc1ccc(COC(=O)Nc2cccc3ccccc23)cc1	0.336 (inactive)
Cc1[nH]c(/C=C2\C(=O)Nc3ccccc32)c(C)c1CCC(=O)O	0.922 (inactive)

Okay, now this compound:
q: Can you look up the measured Z-AUC of CN(C)Cc1cccc(N=C(c2ccccc2)c2c(O)[nH]c3cc(C(N)=O)ccc23)c1 for me?
a: 0.325 (inactive)
